System: Wolbachia pipientis
Test: Anti-Wolbachia Cell-Based Screen
Type: functional
Design: scale not given: in the data most compounds retested in dose-response had high values
Conditions: 5 µM
About 13,000 (27%) of roughly 48,000 compounds showed an effect of 50% or more. The list shows a part of the results.
Here the recorded Percent Effect is given for each entry.

Record excerpt, results attached:
# input compound: CNS(=O)(=O)c1cccc(C(C)NCc2ccncc2)c1 (stereo unspecified) ; wanted: its Percent Effect
-20.6%

# input compound: `O=C(Nc1ccc(-c2csnn2)cc1)N1CC[C@H](O)C1` ; wanted: its Percent Effect
-5.302%

# input compound: `c1cc(-c2n[nH]c(CNc3nnc(C4CC4)o3)n2)ccn1` ; wanted: its Percent Effect
-23.66%

# input compound: `COCCNC(=O)Cn1c(C)cc2nc(SC)n(CC(C)C)c(=O)c21` ; wanted: its Percent Effect
0.09267%

# input compound: `O=C(CCc1ccc(OC(F)(F)F)cc1)N1CCCS1(=O)=O` ; wanted: its Percent Effect
14.48%

# input compound: O=C(c1ccc(SC(F)(F)F)cc1)N1CCOCC1c1ncon1 (stereo unspecified) ; wanted: its Percent Effect
-6.89%

# input compound: `Nc1nc(SCc2ccc3c(c2)OCO3)ns1` ; wanted: its Percent Effect
92.69%

# input compound: COCCS(=O)(=O)NC(C)c1ccc(-n2nc(C)cc2C)cc1 (stereo unspecified) ; wanted: its Percent Effect
-14.21%

***
# input compound: `Cn1nccc1C(=O)N1CCN(C(=O)C2CCC2)[C@@H]2CS(=O)(=O)C[C@@H]21` ; wanted: its Percent Effect
-1.449%

# input compound: `CCCNC(=O)Cn1c(-n2nc(C)cc2C)nc(CCC)cc1=O` ; wanted: its Percent Effect
109.3%

# input compound: `CC(=O)N(C/C=C/c1ccccc1)CCO` ; wanted: its Percent Effect
-9.29%

# input compound: `Cc1cc(C)n(-c2cncc(N3CCN(C(=O)C(C)C)CC3)n2)n1` ; wanted: its Percent Effect
-1.845%

# input compound: `CCCc1cc(=O)n(CC(=O)NCCOC)c(-n2nc(C)cc2C)n1` ; wanted: its Percent Effect
110%

# input compound: CCC(C)NS(=O)(=O)Cc1cccc(NC(=O)c2ccc[nH]2)c1 (stereo unspecified) ; wanted: its Percent Effect
-2.911%

# input compound: `COCc1noc(C2(c3ccc(Cl)cc3)CCOCC2)n1` ; wanted: its Percent Effect
0.3658%

# input compound: `c1cc(CNc2ncc(-c3cnccn3)c(C3CC3)n2)ccn1` ; wanted: its Percent Effect
244.3%

# input compound: `CC(C)c1nc(CC(=O)N(C)Cc2ccc3c(c2)OCO3)cs1` ; wanted: its Percent Effect
-4.138%

# input compound: Cc1nc(CNC(=O)CC2C(=O)NCCN2CCC(C)C)n[nH]1 (stereo unspecified) ; wanted: its Percent Effect
13.35%

# input compound: CCOC1CCCN(C(=O)c2ccccc2NCc2cccnc2)C1 (stereo unspecified) ; wanted: its Percent Effect
55.92%

# input compound: `O=C(CCc1ccc(F)cc1)NS(=O)(=O)c1ccc2c(c1)OCCCO2` ; wanted: its Percent Effect
20.72%

# input compound: `CCc1cc(N2C[C@H](C3CC3)[C@@H](N)C2)nc(N2CCOCC2)n1` ; wanted: its Percent Effect
-5.197%

# input compound: `Cc1cc(C)n2nc(CC(=O)N[C@H]3C[C@H]4CN(C)CCN4C3)nc2n1` ; wanted: its Percent Effect
-5.28%

# input compound: `O=C(NCc1ccccc1)N1CCn2c(Cn3cccn3)cnc2C1` ; wanted: its Percent Effect
-1.854%
